- Test system: CAKI-1
- test description: minimum viability across doses, drug alone, relative to DMSO (fraction); higher = less growth inhibition
- condition notes: treatment: drug alone; 5 days
Answer each item with its documented minimum viability across doses.
Keep it simple and answer with nothing but the number.

Query: Give me measured minimum viability across doses, please, for this compound: `CCCS(=O)(=O)Nc1ccc(F)c(C(=O)c2c[nH]c3ncc(-c4ccc(Cl)cc4)cc23)c1F`
Result: 0.76

Query: Give me measured minimum viability across doses, please, for this compound: `Nc1nc(N)c2nc(-c3cccc(O)c3)c(-c3cccc(O)c3)nc2n1`
Result: 0.567

Query: Give me measured minimum viability across doses, please, for this compound: O=c1c(O)c(-c2ccc(O)c(O)c2)oc2cc(O)cc(O)c12 [Quercetin (Sophoretin)]
Result: 0.861

Query: Give me measured minimum viability across doses, please, for this compound: `CNC(=O)c1nn(C)c2c1C(C)(C)Cc1cnc(Nc3ccc(N4CCN(C)CC4)cc3)nc1-2`
Result: 0.0591
